Each record here notes measured LC retention time.
Assay: HILIC, Waters ACQUITY UPLC BEH Amide, 100 × 2.1 mm, 1.7 µm; A: water + 0.125% formic acid + 10 mM ammonium formate; B: 5% water + 95% acetonitrile + 0.125% formic acid + 10 mM ammonium formate; gradient (min/%B) 0/100 2/100 7.7/70 9.5/40 10.25/30 12.75/100 17/100
Conditions: stereoisomer not certain
Express the result in min but write the number alone.

- CC12CC(=O)C3C(CCC4=CC(=O)CCC43C)C1CCC2=O (centres undefined) [Adrenosterone]: 1.1
- CNC(C)Cc1ccccc1 (centres undefined) [Methamphetamine]: 3.33

Input line: Could you share which LC retention time value was measured for CC(C)c1ccc2c(c1)c(SC(C)(C)C)c(CC(C)(C)C(=O)O)n2Cc1ccc(Cl)cc1 [MK-886] ?
Output line: 0.96

Input line: Subsequent entry: CC1=NS(=O)(=O)c2cc(Cl)ccc2N1 [Diazoxide]
Output line: 1.09

Input line: Input CC1CC2C3CCC4=CC(=O)C=CC4(C)C3(F)C(O)CC2(C)C1C(=O)CO (centres undefined) [Desoximetasone]
Output line: 1.13

Input line: Lookup CN1CCC23CCCCC2C1Cc1ccc(O)cc13 (centres undefined) [Dextrorphan]
Output line: 3.87

Input line: What do you have for CC(C)C(N)C(=O)OCCOCn1cnc2c(=O)[nH]c(N)nc21 (centres undefined) [Valaciclovir] ?
Output line: 6.83

Input line: And for CCOC(=O)N1CCC(=C2c3ccc(Cl)cc3CCc3cccnc32)CC1 [Loratadine] ?
Output line: 1.11

Input line: Now consider NCC(=O)NCC(=O)NCC(=O)O [Gly-Gly-Gly] .
Output line: 9.18

Input line: Also need COc1cc(OC)c(C(=O)CCCN2CCCC2)c(OC)c1 [Buflomedil] , thanks.
Output line: 2.34

Input line: Quick one: Cc1ccccc1-n1c(C)nc2ccccc2c1=O [Methaqualone]
Output line: 1.1

Input line: How about COc1cc2nc(N3CCN(C(=O)C4CCCO4)CC3)nc(N)c2cc1OC (centres undefined) [Terazosin] ?
Output line: 4.66

Input line: Next entry: C=CC1=C(C(=O)O)N2C(=O)C(NC(=O)C(=NO)c3csc(N)n3)C2SC1 (centres undefined) [Cefdinir]
Output line: 6.94

Input line: Now the compound CCC(C)C(N)C(=O)O (centres undefined) [Isoleucine]
Output line: 7.18

Input line: Record: NCCCCNCCCN [Spermidine]
Output line: 6.98

Input line: Same question, CN1C2CC(OC(=O)C(CO)c3ccccc3)CC1C1OC12 (centres undefined) [Scopolamine] this time
Output line: 3.75

Input line: Same for CC(C)C1=CC2=CCC3C(C)(C(=O)O)CCCC3(C)C2CC1 (centres undefined) [Abietic acid]
Output line: 1.11

Input line: Same lookup for COc1cc(-c2[o+]c3cc(O)cc(O)c3cc2OC2OC(CO)C(O)C(O)C2O)cc(O)c1O (centres undefined) [Petunidin-3-glucoside] , please.
Output line: 4.47

Input line: Could you do the same for O=C(O)CCCCCCCCCCCCCCCCC(=O)O [Octadecanedioic acid] , please?
Output line: 1.24
